Assay: clinical
Conditions: human, in vivo, Vd (apparent volume of distribution)
Experimental: Atropine was administered if diarrhoea, abdominal cramping or other symptoms of early cholinergic syndrome occurred within 1 h of receiving irinotecan. […] Samples were added to C8 solid-phase extraction tubes and extracts were dried on an evaporator. […] The fluorescence detector was set at excitation 480 nm and emission 560 nm. Pharmacokinetic parameters were determined by noncompartmental methods using WinNonlin (Version 3.0, Pharsight Corp., Mountain View, CA, USA). […]
READOUT TYPE: Vd (L)
Answer with a number only, understood to be in L.

Item COc1cccc2c1C(=O)c1c(O)c3c(c(O)c1C2=O)C[C@@](O)(C(=O)CO)C[C@@H]3O[C@H]1C[C@H](N)[C@@H](O)[C@H](C)O1 [epirubicin] : provide Vd
3480
